Target: T1, alpha-s1 casein from Bos taurus
T1 chain: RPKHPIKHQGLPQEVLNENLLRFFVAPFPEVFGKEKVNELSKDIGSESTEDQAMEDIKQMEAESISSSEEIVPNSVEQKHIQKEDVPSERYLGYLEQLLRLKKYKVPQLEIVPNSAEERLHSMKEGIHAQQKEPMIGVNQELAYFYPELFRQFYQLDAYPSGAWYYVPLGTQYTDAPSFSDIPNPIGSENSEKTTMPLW
Measured αs1-I CN, 6 hours, 11° C. values are reported for all entries that follow.
measured_quantity: αs1-I CN, 6 hours, 11° C. (Volume)

[[record]]
protein = "camel chymosin variant #155 (D290Q) (protein) GKVAREPLTSYLDSQYFGKIYIGTPPQEFTVVFDTGSSDLWVPSIYCKSNVCKNHHRFDPRKSSTFRNLGKPLSIHYGTGSMEGFLGYDTVTVSNIVDPNQTVGLSTEQPGEVFTYSEFDGILGLAYPSLASEYSVPVFDNMMDRHLVARDLFSVYMDRNGQGSMLTLGAIDPSYYTGSLHWVPVTLQQYWQFTVDSVTINGVAVACVGGCQAILDTGTSVLFGPSSDILKIQMAIGATENRYGEFDVNCGNLRSMPTVVFEINGRDYPLSPSAYTSKDQGFCTSGFQGQNNSELWILGDVFIREYYSVFDRANNRVGLAKAI"
endpoint_value = "2.03e+07"

[[record]]
protein = "camel chymosin variant #140 (F223M) (protein) GKVAREPLTSYLDSQYFGKIYIGTPPQEFTVVFDTGSSDLWVPSIYCKSNVCKNHHRFDPRKSSTFRNLGKPLSIHYGTGSMEGFLGYDTVTVSNIVDPNQTVGLSTEQPGEVFTYSEFDGILGLAYPSLASEYSVPVFDNMMDRHLVARDLFSVYMDRNGQGSMLTLGAIDPSYYTGSLHWVPVTLQQYWQFTVDSVTINGVAVACVGGCQAILDTGTSVLMGPSSDILKIQMAIGATENRYGEFDVNCGNLRSMPTVVFEINGRDYPLSPSAYTSKDQGFCTSGFQGDNNSELWILGDVFIREYYSVFDRANNRVGLAKAI"
endpoint_value = "2.34e+07"


meta.source: patent US20150140169
